Would you mind telling me the reported apparent KD of MS2 coat protein of each entry?
- Test system: MS2 coat protein
- assay_info: apparent KD of MS2 coat protein; designed switch direction (-1 OFF switch, 1 ON switch): -1; higher = weaker reporter binding
- assay_setup: input ligand: microRNA oligo, concentration not stated
# unit: nM | format: bare number

Problem: Find the measured apparent KD of MS2 coat protein of GCGGAUUAUGUAGGAUAUCGGUCAGUUUCUGAUCGAGAAGGACAUGAGGAUCACCCAUGUAAAUUGCUCGCUUUGUGAGCCCGC [JL ENG1 3.63] (Eterna round: R96, puzzle: Exclusion NG 1) and report it.
Result: 12.4

Problem: Query apparent KD of MS2 coat protein for UUAUUGUGUGUAGGAUAUGCGUGUUAUUAUUAUGCAGAAGGACAUGAGGAUCACCCAUGUGUAUUGUUAUUAUAUAUUAUAUAU [Title] (Eterna round: R96, puzzle: Exclusion NG 1)
Result: 21.2

Problem: Report apparent KD of MS2 coat protein for CCGCUAAGAGCAGGAUAUGAGUAACAUGAGGAUCACCCAUGUGGACCAUGAAACAGUCCACGCAGUCAGAAGGGUUACGUGGCA [Eternabot solution 33] (Eterna round: R96, puzzle: Exclusion NG 2)
Result: 23.1

Problem: State its apparent KD of MS2 coat protein: ACAUGUCAUUGAGGAUAUCGCACACAUGAGGAUCACCCAUGUAAACGGAUGCUCUUUCGUGGGUUCGAGAAGGCGAUGUACAUU [Ex NG2 #96] (Eterna round: R96, puzzle: Exclusion NG 2)
Result: 49

Problem: Quote apparent KD of MS2 coat protein reported for UGUUGUCGCGCAGGAUAUGAGGAUCACCCAUAUACAGGAUAUGAAAAGAAGGGUCUGAGGAUUACCCAGAAGGGCGGGACAACU [pwkr exNG2 2xF5 2xFMN.26] (Eterna round: R96, puzzle: Exclusion NG 2) please.
Result: 59.1

* * *

Provide the recorded apparent KD of MS2 coat protein for the entries that follow.
- System: MS2 coat protein
- assay_info: apparent KD of MS2 coat protein; designed switch direction (-1 OFF switch, 1 ON switch): -1; higher = weaker reporter binding
- assay_setup: input ligand: none
Respond numerically; units are µM and should not be typed.

Problem: Return the recorded apparent KD of MS2 coat protein value; entry: AUUAUGUUAGGAUAUGCUUAUGGUGGAUAGUCCAGUAUGAUGUAGAAGGGACAUGAGGAUCACCCAUGUGCUGA [EX4 #34] (Eterna round: R97, puzzle: Exclusion 4)
Result: 0.0419

Problem: Given GUAAACGUAUAGGAUAUUUCAGGUCAAAGCUGCAAAGAAGGAUGCACAUGAGGAUCACCCAUGUGGUCAAUAAA [Mod of Quesina 24 - Jieux - Exclusion 6] (Eterna round: R97, puzzle: Exclusion 6) , respond with its apparent KD of MS2 coat protein.
Result: 0.0222

Problem: Tell me its apparent KD of MS2 coat protein given GAUUAACAUGAGGAUCACCCAUGUGAGGAUAUGAACUUGCCCACUUACCCUUUAGAGUUUAGAAGGCGCAUUCU [1986#33] (Eterna round: R97, puzzle: Exclusion 1) as the entry.
Result: 0.0282

* * *

Please go through the items and note down their apparent KD of MS2 coat protein.
- Tested on: MS2 coat protein
- assay_info: apparent KD of MS2 coat protein, switch OFF state (with FMN for OFF switches, without FMN for ON switches); designed switch direction (-1 OFF switch, 1 ON switch): 1; higher = weaker reporter binding
- assay_setup: FMN input: 0 or 200 uM; Eterna round: R93 (includes R88 designs)
Write down the numeric answer in nM and omit the unit.

Problem: Assign apparent KD of MS2 coat protein to the following record: AAGAAACAUGAGGAUCACCCAUGUGAGAUAAACACAGGAUAUGCGAAAAGAAAUAAAUAAGCAGAAGGGUGAAGAA [Mat - Same State 1 - Tesla mod - 70]
Result: 62.6

Problem: Return apparent KD of MS2 coat protein for the following sequence: GAAAAACAUGAGGAUCACCCAUGUGAGAAUAUGGGAGGAUAUACAAGGACGAAAGUCAAGGUAGAAGGCCUAAAAG [Mat - Same State 1 - Eli mod - 28]
Result: 155

Problem: Answer with reported apparent KD of MS2 coat protein of GAAAAACAUGAGGAUCACCCAUGUGAAAACUUGGGAGGAUAUACUAAGACGAAAGUCGAGGUAGAAGGCCUAAAAG [Same State 1.4i (Mat - Mod of Eli - )]
Result: 74.1

Problem: Report measured apparent KD of MS2 coat protein; entry is AACAAUCUAUCUGAGGAUAUCAUGUGAAAGACAUGAGGAUCACCCAUGUCGCAGGAAACUGCUCAUGAGAAGGCAGAUAGAUUGA [SS2: 1127]
Result: 12.5

Problem: Please list apparent KD of MS2 coat protein recorded for the sequence AGGAGACAUGAGGAUCACCCAUGUGAGAAGAGGCGAGGAUAUCGAAAGAAAGAAAGAAAACGAGAAGGCGCGAGAA [salish99-SS1-016]
Result: 42.8

Problem: Indicate the recorded apparent KD of MS2 coat protein value for this sequence: AAAGAAAAACUAGAGGAUAUCCGAGUGGUAACAUGAGGAUCACCCAUGUGAUGAAAGGAACAUGAGGAGAAGGCUAGAAGAAAAA [JL Nando mod 8]
Result: 257

Problem: Indicate its recorded apparent KD of MS2 coat protein; the sequence in question is AAAAAACAUGAGGAUCACCCAUGUAGAAACAUGGGAGGAUAUACGAAGACGAAAGUCAAAGUAGAAGGCCUAAGAA [Garnet 88]
Result: 224

Problem: Assign apparent KD of MS2 coat protein to the following record: AGAAAACAUGAGGAUCACCCAUGUAGAAAUAUGGGAGGAUAUACAAAGACGAAAGUCAAGGUAGAAGGCCUAAAGA [Mat - Same State 1 - Meechl mod - D124]
Result: 99.9

Problem: Tell me measured apparent KD of MS2 coat protein for AGGAAACAUGAGGAUCACCCAUGUAAAAAAAUGGGAGGAUAUACUAGAAGAAACAAAAUAGUAGAAGGCCUAAAAA [75%, Ex sub1, 27] please.
Result: 74.9

Problem: Fill in reported apparent KD of MS2 coat protein for this entry: UAGAGACAUGAGGAUCACCCAUGUAGGAUUAUGGGAGGAUAUACAAAGACGAGAGUCAGAGUAGAAGGCCUAGGAC [salish99-ss1-136(!)]
Result: 60.1

Problem: Please report apparent KD of MS2 coat protein for the following sequence: GUGGCCUAGGCACAGGAUAUGUUGCUCGUAACAUGAGGAUCACCCAUGUGCCUAUGAGAUUUAAUGCAGAAGGGUGCACGCCACG [Edbeso]
Result: 233

Problem: Specify apparent KD of MS2 coat protein for AGAAAUAAAAGAGAGGAUAUCCAAAAUAAAACAUGAGGAUCACCCAUGUGUACGAAAGUACAAUGGGAGAAGGCUCAAAAUAAAG [80% More Helter Skelter 2 + Hairpin] and stop.
Result: 6.54

* * *

- Tested on: MS2 coat protein
- assay_info: apparent KD of MS2 coat protein; designed switch direction (-1 OFF switch, 1 ON switch): 1; higher = weaker reporter binding
- assay_setup: Eterna round: R95; input ligand: none
Please respond with reported apparent KD of MS2 coat protein for every item in the list.
Numeric only. Scale: nM

Problem: Return value of apparent KD of MS2 coat protein for input AGUCCUGAAAAGAAAAUACAGAGAGAUGUACAUGAGGAUCACCCAUGUCAUGUACAAGUUCUAUGCUCGUCAUAUAA [Sensorship 22 - Jieux - Sensor for hsa-mir-208a] (puzzle: Sensor for hsa-mir-208a) , no commentary.
Result: 617

Problem: Please report the measured apparent KD of MS2 coat protein for GUAUCUACAGGUUUCUUUGCUCGUCUGAUACAUGAGGAUCACCCAUGUUAUAGCCCUGUGCUUGCGCAGGGCUGAGG [Sensor for hsa-mir-208a ( MOD of Tearor v.3 )] (puzzle: Sensor for hsa-mir-208a)
Result: 37

Problem: Specify reported apparent KD of MS2 coat protein for the sequence shown: UCUUGGUUUUUGCUCGUUUUUUGUGUUGAACAUGAGGAUCACCCAUGUAUUGUACAAUCCAGUUUGAUAAUGGUCCA [Mod of one of JR's submissions] (puzzle: Sensor for hsa-mir-208a)
Result: 102

Problem: Specify apparent KD of MS2 coat protein for AGAGCCGGCACUGAGGAUAUUCAUAUUAAAACAUGAGGAUCACCCAUGUAGGCCAGAAGGCCUUGGGAGAAGGCAGGUCGGCUCU [Mat - Same State 2 - Mod of UCT - D61] (puzzle: Same State 2) and stop.
Result: 507

Problem: Quickly give me recorded apparent KD of MS2 coat protein for GAGGAUGAUUUACAGGAUAUAUAGAAGAUGACAUGAGGAUCACCCAUGUAAGAGAGAGGAGGGAGAUAGAAGGGUAAGGGAUGUG [JR_SS2_Sub41] (puzzle: Same State 2)
Result: 49.6

Problem: Quickly give me recorded apparent KD of MS2 coat protein for GAGUGACAUGAGGAUCACCCAUGUAGAAUAGAACAAGGAUAUGUGGAAGGCGGAGGAGAGACAGAAGGUGUUGAAG [JR_SS1_Sub057] (puzzle: Same State 1)
Result: 67.7

Problem: Specify reported apparent KD of MS2 coat protein for the sequence shown: AUUUAACAAGCUUUUUGCUCGUCUUAUAAACAUGAGGAUCACCCAUGUAAUAGCGUGAGAGUUAUUAUAUAAAUAAU [JMF 87] (puzzle: Sensor for hsa-mir-208a)
Result: 16.7

Problem: Consider the sequence AGAAGACAUGAGGAUCACCCAUGUAUGAAAAGUACAGGAUAUCAUGAGCUAAGGUGCGCAUGAGAAGGGUGAAAAU [Aatle] (puzzle: Same State 1) and give its recorded apparent KD of MS2 coat protein.
Result: 70.3

Problem: Assign apparent KD of MS2 coat protein to the following record: AUUAUACAUGAGGAUCACCCAUGUCAAUGUAGUCGAGGAUAUGGGUUGCUAUGAGGCGUACUAGAAGGCGAGGAGA [Mat - Same State 1 - Mod of JL - D17] (puzzle: Same State 1)
Result: 82.8

Problem: Identify apparent KD of MS2 coat protein associated with the sequence ACAAGCUUUUUAGGAGAGAAAGGUGGGAUACAUGAGGAUCACCCAUGUAUUGUUGUUAAUAGUGGACCUCGUCUUAU [JR_SHM208A_Sub083] (puzzle: Sensor for hsa-mir-208a)
Result: 29.2

Ref: the supplement of paper PMC9170038
